measured target: AtMYB61 (Arabidopsis thaliana, UniProt Q8VZQ2 1-366)
Sequence (Q8VZQ2 whole entry): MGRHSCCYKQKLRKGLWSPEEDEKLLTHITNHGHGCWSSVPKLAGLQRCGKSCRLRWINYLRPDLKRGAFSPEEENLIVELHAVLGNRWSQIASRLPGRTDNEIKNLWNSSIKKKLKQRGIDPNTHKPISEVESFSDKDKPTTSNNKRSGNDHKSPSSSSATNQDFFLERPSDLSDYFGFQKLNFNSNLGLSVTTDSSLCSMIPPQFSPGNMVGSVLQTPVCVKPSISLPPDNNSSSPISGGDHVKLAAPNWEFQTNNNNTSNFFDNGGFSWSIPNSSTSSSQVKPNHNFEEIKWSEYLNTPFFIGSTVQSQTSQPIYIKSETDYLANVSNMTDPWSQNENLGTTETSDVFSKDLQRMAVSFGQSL
measurement protocol: filter binding; Buffer, salt, pH and temperature not stated (filter binding per Hall and Kranz; EMSA per earlier work); filter binding with 1065 nM probe (124.41 ng, 60 bp) in
study conditions: protein: recombinant; tags: pET15b (NdeI/BamHI) fusion
Entries and their measured Kd follow.
Please state the number and follow it with the unit.

1. ACCAAT (dsDNA) DNA 1: ACATTGGGCGAGAAAAGCTGATCCCCACCAATCCGGGCTATCTCCCCCTCCTCCTCCGATCTG DNA 2: CAGATCGGAGGAGGAGGGGGAGATAGCCCGGATTGGTGGGGATCAGCTTTTCTCGCCCAATGT: 12.1 nM

Field Kd (entry ACCACA (dsDNA) DNA 1: ACATTGGGCGAGAAAAGCTGATCCCCACCACACCGGGCTATCTCCCCCTCCTCCTCCGATCTG DNA 2: CAGATCGGAGGAGGAGGGGGAGATAGCCCGGTGTGGTGGGGATCAGCTTTTCTCGCCCAATGT ) reads 80.8 nM

Field Kd (entry ACCTAG (AC-I mutant, C6G) (dsDNA) DNA 1: ACATTGGGCGAGAAAAGCTGATCCCCACCTAGCCGGGCTATCTCCCCCTCCTCCTCCGATCTG DNA 2: CAGATCGGAGGAGGAGGGGGAGATAGCCCGGCTAGGTGGGGATCAGCTTTTCTCGCCCAATGT ) reads 56 nM

Field Kd (entry ACCGAC (AC-I mutant, T4G) (dsDNA) DNA 1: ACATTGGGCGAGAAAAGCTGATCCCCACCGACCCGGGCTATCTCCCCCTCCTCCTCCGATCTG DNA 2: CAGATCGGAGGAGGAGGGGGAGATAGCCCGGGTCGGTGGGGATCAGCTTTTCTCGCCCAATGT ) reads 719 nM
